System: SF-539
PROTOCOL_SUMMARY: NCI tumour cell line growth inhibition, 48 h
The source made the active and inactive calls. No stated cut-off is given here; in the data, active = GI50 up to about 1.1 µM and inactive = higher.
Classes used: t = active, f = inactive

CC(C)=CC(=O)N1CCN(C(=O)C=C(C)C)CC1 | f
Cc1nnc2nc(-c3ccc(Cl)cc3Cl)cc(-c3ccc(Cl)cc3)n12 | f
COc1ccc(N2C(=O)C(Cl)C2c2cc3cc(Br)ccc3nc2Cl)cc1 (stereo not drawn) | f
OC1(C(O)(c2ccc(-c3ccccc3)cc2)c2ccc(-c3ccccc3)cc2)CCCCC1 | f
Cc1c2ccncc2c(C)c2c1[nH]c1ccccc12 | t
CCOC(=O)C1S/C(=N\c2ccc(Cl)cc2Cl)N=C1C (stereo not drawn) | f
Cc1ccc(OCC2CO2)c(Br)c1 (stereo not drawn) | f
Cc1ccc(S(=O)(=O)CNC(=S)CCCC(=S)NCS(=O)(=O)c2ccc(C)cc2)cc1 | f
CN(C)c1nc(-c2ccccc2)c(C(=O)c2c[nH]c3ccccc23)s1 | f
CC1CNC(c2cccc(-c3nc(-c4cccc(C5=NC(C)CN5)c4)nc(N(C)C)n3)c2)=N1 (stereo not drawn) | t
Cc1ccccc1NC(=O)c1nc(S)nc(N)c1-c1ccccc1C | f
C=C1C(=O)OC2C1C(OC(=O)/C(C)=C/C)CC(O)(CCl)C1C(O)C=C(C)C21O (stereo not drawn) | f
O=C1C(=C2CCCC2)CCC1CN1CCCCC1 (stereo not drawn) | f
CC1=C(C(=O)CC(=O)C(=O)Nc2cccc(Cl)c2C)Sc2ccccc2N1 | f
Cc1nc2ccccc2n1CCc1nc2ccccc2[nH]1 | f
Cc1cc(C)c(/C=C2\C(=O)Nc3ccccc32)[nH]1 | f
COc1ccc(N(CC(=O)O)S(=O)(=O)c2ccccc2)cc1 | f
Cc1ccc2c(c1)C(=O)C1(C2)Cc2ccc(C)cc2C1=O | f
Oc1cc(-c2ccccn2)nc2cc(F)ccc12 | f
CC(=O)NNc1nc(C)c(C(/C=C/c2ccc(Cl)cc2)=N\NS(=O)(=O)c2ccc(C)cc2)s1 | f
CS(=O)(=O)OCCCNCCCOS(C)(=O)=O | f
COC(=O)c1sc(=O)n(-c2ccccc2)c1SCc1ccccc1 | f
CCCCC(=O)/C=c1/cc(C)[nH]c2cccc3cnn1c32 | f

Values from ChEMBL document CHEMBL1201862
